Test system: Human papillomavirus type 1a E7 protein (residues 1-88)
assay_text: HPV1a E7 small-molecule binders, primary screen, biochemical, small-molecule microarray, residues 1-88, 635 nm (AID 1129)
protocol_conditions: small-molecule microarray binding, fluorescence 635 nm; higher = more signal
Here the recorded composite z-score is given for each entry.
Hey, just send me the number, nothing else.

Below, each entry is followed by its recorded composite z-score result.
# compound, measurement_target, composite z-score
records = [
    ("Cc1ccc([C@H]2C(C(=O)O)=C[C@@H](C(C)(C)C)N2S(=O)(=O)c2ccc(C)cc2)cc1", "Human papillomavirus type 1a E7 protein (residues 1-88)", 1.24),
    ("[N-]=[N+]=NCc1ccccc1[C@@H]1OC(c2ccc(OCCCO)cc2)=N[C@]1(Cc1ccccc1)C(=O)NCCN1CCOCC1", "Human papillomavirus type 1a E7 protein (residues 1-88)", 1.18),
    ("CC(C)N1CC=CC23O[C@@H]4/C=C\\CCCOC(=O)C4[C@H]2C(=O)N(CCCCCCO)[C@@H]3C1=O (stereo partly drawn)", "Human papillomavirus type 1a E7 protein (residues 1-88)", -0.808),
    ("COCCOC(=O)N1C(=O)[C@@]2(c3cc(C#Cc4ccc(OC)cc4)ccc31)[C@H](C(=O)NC[C@H](O)c1ccccc1)[C@H]1C(=O)O[C@H](c3ccccc3)[C@H](c3ccccc3)N1[C@@H]2c1ccc(OCCO)cc1", "Human papillomavirus type 1a E7 protein (residues 1-88)", 1.2),
    ("O=C1O[C@H](c2ccccc2)[C@H](c2ccccc2)N2[C@H]1[C@@H](C(=O)N1CCCCCCC1)[C@]1(C(=O)Nc3ccc(C#CC4(O)CCCCCC4)cc31)[C@H]2c1ccccc1OCCO", "Human papillomavirus type 1a E7 protein (residues 1-88)", 1.35),
]

## Task Item: `COCCOC(=O)N1C(=O)[C@@]2(c3cc(C#CCNC(N)=O)ccc31)[C@H](c1ccc(OCCO)cc1)N1[C@H](c3ccccc3)[C@H](c3ccccc3)OC(=O)[C@H]1[C@@H]2C(=O)NC[C@H](O)c1ccccc1` Test system: Human papillomavirus type 1a E7 protein (residues 1-88) Read-out: composite z-score Value: ?
## Result 0.984

## Task Item: `C=C(COC)/C(=C/C[C@@H](OC(C)=O)c1ccc(CO)o1)c1cc(C(=O)OC)ccc1OC` Test system: Human papillomavirus type 1a E7 protein (residues 1-88) Read-out: composite z-score Value: ?
## Result 0.091

## Task Item: `C[C@]1(C(=O)NCC(F)(F)F)c2ccccc2C(=O)N(Cc2ccccc2)[C@H]1c1ccc(CO)cc1` Test system: Human papillomavirus type 1a E7 protein (residues 1-88) Read-out: composite z-score Value: ?
## Result -0.634

## Task Item: CCCCCN1CC=CC23O[C@@H]4/C=C\CCC(C)OC(=O)C4[C@H]2C(=O)N(CCCCCCO)[C@@H]3C1=O (stereo partly drawn) Test system: Human papillomavirus type 1a E7 protein (residues 1-88) Read-out: composite z-score Value: ?
## Result 0.229

## Task Item: `C=C(CCCC)C(=O)CC[C@H](OC(C)=O)c1ccc(OCCO)cc1` Test system: Human papillomavirus type 1a E7 protein (residues 1-88) Read-out: composite z-score Value: ?
## Result -0.957
